Target: ADAMTS4 (Homo sapiens (Human), UniProt O75173)
Sequence (O75173 213-685): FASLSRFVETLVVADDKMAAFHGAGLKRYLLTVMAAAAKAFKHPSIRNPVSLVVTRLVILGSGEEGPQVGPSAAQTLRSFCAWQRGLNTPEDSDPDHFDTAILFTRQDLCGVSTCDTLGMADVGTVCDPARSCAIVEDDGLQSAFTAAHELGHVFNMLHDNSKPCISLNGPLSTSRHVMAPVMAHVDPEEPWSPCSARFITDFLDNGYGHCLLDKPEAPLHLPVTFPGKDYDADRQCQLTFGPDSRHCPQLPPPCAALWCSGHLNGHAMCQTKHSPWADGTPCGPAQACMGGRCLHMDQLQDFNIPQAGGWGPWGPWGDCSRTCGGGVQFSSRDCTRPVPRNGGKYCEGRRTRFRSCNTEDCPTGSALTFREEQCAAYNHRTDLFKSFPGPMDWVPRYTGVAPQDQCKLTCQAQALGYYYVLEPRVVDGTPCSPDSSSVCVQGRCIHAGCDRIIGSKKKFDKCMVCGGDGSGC
Assay: Selectivity assay for ADAMTS-7 modulators: ADAMTS4 (FRET substrate)
Assay type: biochemical
Conditions: ADAMTS4 (R&D 4307-AD) 50 nM, substrate Dabcyl-EEVKAKVQPY-Glu(Edans)-NH2 1 μM, 120 min, 32° C.
pIC50: −log10 of the molar value.
Listing: pIC50 of selected compounds

Compound	Lt Gt Eq	pIC50
O=C1NC(=O)C(CNC(=O)c2ccccc2-c2ccc(Cl)cc2)(c2ccnn2C(F)F)N1 (racemic) [Example 258]	=	4.92
CCc1ccc(-c2cc(F)ccc2C(=O)NC[C@@]2(C3CC3)NC(=O)NC2=O)cc1 [Example 110]	=	5.10
O=C1NC(=O)C(CNC(=O)c2ccccc2-c2ccc(C(F)(F)F)cc2)(c2ccnn2C(F)F)N1 (stereo not drawn) [Example 261]	<	4.30
O=C1NC(=O)C(CNC(=O)c2ccccc2-c2ccc(C(F)(F)F)cc2)(c2cscn2)N1 (racemic) [Example 196]	=	4.52
O=C1NC(=O)C(CNC(=O)c2ccccc2-c2ccc(C(F)(F)F)nc2)(c2ncsc2C2CC2)N1 (stereo not drawn) [Example 274]	=	5.42
O=C1NC(=O)[C@](CNC(=O)c2ccc(F)cc2-c2ccc(C3CC3)cc2)(C2CC2)N1 [Example 104]	=	5.06
Cc1scnc1C1(CNC(=O)c2ccc(F)cc2-c2ccc(Cl)cc2)NC(=O)NC1=O (single isomer, unassigned; ent-4) [Example 170]	=	5.31
Cn1nccc1C1(CNC(=O)c2c(F)cccc2-c2ccc(C(F)(F)F)cc2)NC(=O)NC1=O (single isomer, unassigned; ent-3) [Example 186]	=	4.62
Cc1scnc1C1(CNC(=O)c2ccccc2-c2ccc(C(F)(F)F)cc2)NC(=O)NC1=O (single isomer, unassigned) [Example 3]	=	5.32
Cc1scnc1C1(CNC(=O)c2ccccc2-c2ccc(C(F)(F)F)cc2)NC(=O)NC1=O (single isomer, unassigned) [Example 2]	<	4.30
COc1cc(Cl)ccc1-c1ccccc1C(=O)NCC1(c2ccnn2C)NC(=O)NC1=O (single isomer, unassigned; ent-4) [Example 314]	<	4.30
CC(C)C1(CNC(=O)c2ccc(F)cc2-c2ccc(C(F)(F)F)cc2)NC(=O)NC1=O (single isomer, unassigned; ent-5) [Example 207]	<	4.30
Cc1nc(C)c(C2(CNC(=O)c3ccccc3-c3ccc(C(F)(F)F)cc3)NC(=O)NC2=O)s1 (racemic) [Example 15]	=	5.11
O=C1NC(=O)C(CNC(=O)c2cccc(F)c2-c2ccc(C(F)(F)F)cc2)(C2(F)CC2)N1 (racemic) [Example 299]	=	4.72
CC(C)(c1ccc(-c2ccccc2C(=O)NC[C@@]2(C3CC3)NC(=O)NC2=O)cc1)C(F)(F)F [Example 120]	=	4.46
Cc1c(C2(CNC(=O)c3ccccc3-c3ccc(C(F)(F)F)cc3)NC(=O)NC2=O)cnn1C (stereo not drawn) [Example 31]	=	5.19
Cn1nccc1C1(CNC(=O)c2ccc(F)c(F)c2-c2ccc(C(F)(F)F)cc2)NC(=O)NC1=O (single isomer, unassigned; ent-5) [Example 191]	=	5.19
COc1ccc(-c2ccccc2C(=O)NC[C@@]2(C3CC3)NC(=O)NC2=O)cc1 [Example 130]	=	4.76
Cc1scnc1C1(CNC(=O)c2cc(Cl)ccc2-c2ccc(C(F)(F)F)cc2)NC(=O)NC1=O (single isomer, unassigned; ent-4) [Example 18]	=	4.39
O=C1NC(=O)[C@](CNC(=O)c2ccncc2-c2ccc(Cl)cc2)(C2CC2)N1 [Example 56]	=	4.51
O=C1NC(=O)C(CNC(=O)c2ccc(F)cc2-c2ccc(C(F)(F)F)cc2)(c2ncsc2C(F)(F)F)N1 (stereo not drawn) [Example 268]	=	4.57
Cn1nccc1C1(CNC(=O)c2cc(F)ccc2-c2ccc(C(F)(F)F)cc2)NC(=O)NC1=O (single isomer, unassigned; ent-4) [Example 178]	=	5.27
Cc1cc(C2(CNC(=O)c3ccccc3-c3ccc(C(F)(F)F)cc3)NC(=O)NC2=O)n(C)n1 (racemic) [Example 275]	=	5.04
O=C1NC(=O)[C@](CNC(=O)c2ccc(F)c(F)c2-c2ccc(C(F)(F)F)cc2)(C2CC2)N1 [Example 23]	=	4.90
Cn1nccc1C1(CNC(=O)c2ccc(Cl)cc2-c2ccc(C(F)(F)F)cc2)NC(=O)NC1=O (single isomer, unassigned; ent-5) [Example 188]	=	5.56
O=C1NC(=O)C(CNC(=O)c2ccccc2-c2ccc(C(F)(F)F)nc2)(c2ccccc2)N1 (racemic) [Example 50]	=	4.37
O=C1NC(=O)C(CNC(=O)c2cc(F)ccc2-c2ccc(C(F)(F)F)cc2)(c2ncsc2C(F)(F)F)N1 (racemic) [Example 265]	=	5.04
